tested system: NK1R (Homo sapiens)
Sequence (P25103 whole entry): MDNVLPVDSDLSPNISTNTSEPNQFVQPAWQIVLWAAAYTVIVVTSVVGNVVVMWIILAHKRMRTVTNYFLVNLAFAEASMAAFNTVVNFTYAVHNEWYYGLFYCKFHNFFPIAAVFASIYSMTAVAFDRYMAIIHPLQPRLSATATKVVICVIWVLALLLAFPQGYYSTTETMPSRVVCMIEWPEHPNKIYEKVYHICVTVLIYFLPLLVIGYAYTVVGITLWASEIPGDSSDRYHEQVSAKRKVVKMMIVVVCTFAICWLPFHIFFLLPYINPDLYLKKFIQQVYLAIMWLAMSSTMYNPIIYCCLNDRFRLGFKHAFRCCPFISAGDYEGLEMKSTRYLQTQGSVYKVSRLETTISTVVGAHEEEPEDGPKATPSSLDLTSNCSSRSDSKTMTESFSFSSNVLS
method summary: cell-based
metric name: IC50 (µM)
Answers are plain numbers, in µM.

Prompt line: Any idea what its IC50 is? The molecule is Cc1ccccc1-c1cc(N2CCN(C)CC2)ncc1N(C)C(=O)C(C)(C)c1cc(C(F)(F)F)cc(C(F)(F)F)c1
Response line: 0.178

----------
method summary: logD experiments, distribution between octanol and aqueous buffer
Format: physicochemical
experimental parameters: octanol/phosphate buffer, pH 7
metric name: logD

Prompt line: # input compound: Cc1ccccc1-c1cc(N2CCN(C)CC2)ncc1N(C)C(=O)C(C)(C)c1cc(C(F)(F)F)cc(C(F)(F)F)c1 ; wanted: its logD
Response line: 4.97
